These measurements were taken from PubChem BioAssay (NCI).

# Tested on: U251 CNS
# Experiment summary: NCI-60 one-dose screen, 48 h
# Experimental conditions: 10 µM unless noted
Compounds without any hit were thinned out: in the full panel of roughly 83,000, 20% have a hit. Active and inactive are the calls of the source. Rule for the calls: active = growth percent below 10; inactive = the rest.
Respond only with the outcome that fits, drawn from T = active, F = inactive

Compound	Class name
CCCCOc1ccc(S(=O)(=O)N2CCN(c3nccc(N4CCOCC4)n3)CC2)cc1	F
CCN(CC)c1ccc2cc(C(=O)NCCOCCOCCOCCn3cc(CCC(=O)Nc4ccc(C(=O)c5ccc(NC(=O)OC(C)(C)C)cc5)cc4)nn3)c(=O)oc2c1	F
CCc1ccc(NC(=O)N[C@@H](Cc2cccc(C)c2)C(=O)N[C@@H]2C(=O)N3CCC[C@H]3C(=O)N3CCCC[C@H]3C(=O)N[C@@H](CO)C(=O)N3C[C@H](C)C[C@H]3C(=O)O[C@H]2C)c(F)c1	F

# input Hi, sorry to bother you, what did the test record for CC[C@H](C)[C@H]1NC(=O)[C@@H]([C@H](O)C(C)C)NC(=O)[C@@H](C)N(C)C(=O)[C@H](C)N(C)C(=O)[C@H](CC(C)C)NC(=O)[C@H](CC(C)C)N(C)C(=O)[C@H](C)N(C)C1=O ?
# output T

# input # lookup: test call for CC1=CC(=O)CC(C)(C)[C@@]1(O)/C=C/C(C)=C\C(=O)O
# output T

# input // outcome(item) with item = O=C1c2cc(Br)ccc2-n2c1nc1cc(Br)ccc1c2=O
# output F

# input Dear all, I need the recorded test outcome for CN1CCN(c2ccc3c(c2)nc(NNC(=O)c2ccncn2)c2cccn23)CC1 , thank you.
# output F

* * *

# System: OVCAR-8 ovarian
# Experiment summary: NCI-60 one-dose screen, 48 h (100 = growth as untreated, 0 = no growth, -100 = all killed)
# Experimental conditions: 10 µM unless noted
Compounds without any hit were thinned out: in the full panel of roughly 83,000, 20% have a hit.
Recorded growth split into classes lower level: < 30%; middle level: ≥ 30% and < 90%; upper level: ≥ 90%

Consider the following illustrative entries.
Compound	Class name
NS(=O)(=O)c1ccc(Nc2nc(N/N=C/c3ccc([N+](=O)[O-])cc3)nc(Nc3ccccc3)n2)cc1	middle level
CC(C)(C)n1nnnc1C(Nc1nccs1)c1cc2cccc3ccc4cccc1c4c32 (stereo not drawn)	upper level
O=C1C[C@@H](c2ccccc2)Oc2c(Cc3ccccc3O)c(O)c(Cc3cc(Cc4cc(Cc5ccccc5O)ccc4O)ccc3O)c(O)c21	upper level
COc1ccc(CCN2C(=O)/C(=C/c3nc(CO)cs3)SC2=S)cc1	upper level
CCN(CC)CCCC(C)NCC(=O)NC(c1ccc2c(c1)OCO2)c1cc(Cl)c2cccnc2c1O (stereo not drawn)	lower level

# input Assign a category based on measured growth for O=S(=O)(Nc1ccc(-c2nc(-c3cccc(O)c3)c(-c3ccnc(Br)c3)[nH]2)cc1)c1ccccc1 and give only the class name.
# output lower level

* * *

The following compounds are shown together with reported growth values.
# Test system: HS 578T breast
# Experiment summary: NCI-60 one-dose screen, 48 h (100 = growth as untreated, 0 = no growth, -100 = all killed)
# Experimental conditions: 10 µM unless noted
# Protocol: Growth inhibition of the HS 578T human tumor cell line is measured as a screen for anti-cancer activity. Cells are grown in 96 well plates and exposed to the test compound for 48 hours. Compounds are tested at a single concentration, which is 10^-5 M for most compounds. The reported endpoint is percent growth (GI% or GIPRCNT), where numbers from 0 - 100% represent growth inhibition, and numbers from -100% - 0 represent cell death. For example, a value of 40 represents 60% growth inhibition. […]
About 83,000 compounds went through this panel and 20% of them were active in at least one assay; those are over-represented in the sample as a whole.
Please reply with the bare figure in % and do not write the unit itself.

Use the examples below as a reference point.
Compound	growth (%)
CCNC(=NCCCN(C)C)N/C(N)=N/c1nc2ccccc2s1	92
COc1ccc(C2CC(c3ccc(Nc4nc(NCCO)nc(Nc5ccc(Cl)cc5)n4)cc3)=Nc3c(N)nc(N)nc3N2)cc1 (stereo not drawn)	94.9
O=C(CN1C(=O)CSC1=O)Nc1ccc(C(=O)/C=C/c2cc3ccccc3nc2Cl)cc1	82.7
COc1ccccc1/C=C/C(=O)c1nnn(-c2ccc(C(=O)O)cc2)c1C	106
O=[N+]([O-])c1ccc(-c2nnc(SCc3ccc(O)c4ncccc34)o2)cc1	2.14

Notebook: C/C=C/C=C1\C[C@H]2CO[C@H](O2)C1=O , growth read as 107

The compound O=C1Nc2ccc(Cl)cc2/C1=C/c1ccc(OCc2ccc(Br)cc2F)cc1 showed growth equal to 102

* * *

# Tested on: SK-MEL-5 melanoma
# Experiment summary: NCI-60 one-dose screen, 48 h (100 = growth as untreated, 0 = no growth, -100 = all killed)
# Experimental conditions: 10 µM unless noted
About 83,000 compounds went through this panel and 20% of them were active in at least one assay; those are over-represented in the sample as a whole.
Readout kind: growth (%)
Give the value in % but do not write % after it.

In the examples that follow, each entry is paired with its recorded growth.
> print(dat)
                                        smi       assay.system  numeric.result
1  CCNC(=O)Oc1ccc(/C(=C(/C)c2ccc(Cl)cc2)c2ccc(OCCN3CCCC3)cc2)cc1  SK-MEL-5 melanoma            86.3
2  Cc1nn(-c2ccc(Br)cc2)c2nc(CCl)[nH]c(=O)c12  SK-MEL-5 melanoma             102
3  CC(C)c1nn(-c2ccccc2)c(N2CCCCC2)c1/C=N/NC(N)=S  SK-MEL-5 melanoma            87.5
4  O=C(/C=C1\C=CN(CCCCCCF)c2ccccc21)n1ccc2ccccc21  SK-MEL-5 melanoma            94.4
5  COc1cc2c3c(n(CCCN4CCCC4)c(=O)c2cc1OC)-c1cc2c(cc1C3=O)OCO2  SK-MEL-5 melanoma            87.5

Summary for this compound, Cc1occc1-c1nc2s/c(=C\c3cn(-c4ccccc4)nc3-c3ccccc3)c(=O)n2n1 : growth is 92.4

* * *

# System: LOX IMVI melanoma
# Experiment summary: NCI-60 one-dose screen, 48 h
# Experimental conditions: 10 µM unless noted
About 83,000 compounds went through this panel and 20% of them were active in at least one assay; those are over-represented in the sample as a whole. Activity calls are given as the source filed them. The calls were made as follows: active = growth percent below 10; inactive = the rest.
Hi! Could you answer with just one of these? T = active, F = inactive

> print(dat)
                                    compound  class.name
 1  CS(=O)c1nccc(-c2c(-c3ccc(F)c(OCc4ccc(F)cc4)c3)nc3sccn23)n1 (stereo unspecified)           F
 2  C#C[C@]1(O)CC[C@H]2[C@@H]3CC=C4c5sc(-c6ccc(OC)cc6)nc5CC[C@]4(C)[C@H]3CC[C@@]21C           F
 3  ClC(Cl)c1nc(-c2cccs2)n2nc(-c3ccccc3)cc2n1           F
 4  CC1=C2C(=C[C@@](C)(COS(N)(=O)=O)[C@@H]2O)C(=O)[C@](C)(O)C12CC2           F
 5  CS(=O)(=O)c1ccc2c(c1)c1c(n2S(=O)(=O)c2ccc(Cl)cc2)CCCC1           F
 6  COc1ccc(S(=O)(=O)NCCCNc2nccc(-n3cnc4ccccc43)n2)cc1           F
 7  O=[N+]([O-])c1ccc(-c2nnc(SCc3ccc(O)c4ncccc34)o2)cc1           F
 8  CS(=O)(=O)c1ccc2c(c1)c1c(n2Cc2ccc(Cl)cc2)CCCC1           F
 9  O=C(CSc1nnc(-c2ccc(Cl)cc2)n1-c1ccccc1)Nc1ccc(F)cc1           F
10  C#C[C@]1(O)CC[C@H]2[C@@H]3CC=C4c5sc(C6CCOCC6)nc5CC[C@]4(C)[C@H]3CC[C@@]21C           F

From here, focus on the item given below.
# input For this compound, state the assay outcome: Cc1cc(=O)n2nc(-c3cn(C)c4ccc(Cl)cc34)sc2n1
# output F

* * *

As shown below, each of these compounds has a reported growth value.
# Test system: HOP-92 NSCLC
# Experiment summary: NCI-60 one-dose screen, 48 h (100 = growth as untreated, 0 = no growth, -100 = all killed)
# Experimental conditions: 10 µM unless noted
About 83,000 compounds went through this panel and 20% of them were active in at least one assay; those are over-represented in the sample as a whole.
Respond with the bare value in %.

Consider the worked cases shown below.
Compound	growth (%)
COc1ccc(S(=O)(=O)n2cc(C=O)c3ccccc32)c(OC)c1	43.3
CC1(C)CC[C@]2(C(=O)O)CC[C@]3(C)C(=CCC4[C@@]5(C)C[C@@H](O)[C@@H]6OC(c7ccccc7O)OC[C@@]6(C)C5CC[C@]43C)C2C1 (stereo partly drawn)	52
CN1CCN(Cc2ccc(NC(=O)c3cncc(C#Cc4cnc5ccc(O[C@H]6CCOC6)nn45)c3)cc2C(F)(F)F)CC1	-38.3
C=C(C)C(=O)O[C@H]1C[C@@]2(C)OC(=CC2=O)/C(CO)=C\[C@H]2OC(=O)C(=C)[C@H]12	-61.4
COc1ccc([C@H]2[C@H](O)C(=O)N2c2cc(OC)c(OC)c(OC)c2)cc1O	-8.12

Just so you know, measured growth for COc1ccc(NC2=C(Cl)C(=O)C(C)=C(C)C2=O)cc1 came out at -2.54

Record O=S(=O)(Nc1cc(Cl)cc(Cl)c1)c1ccc(-c2cnc(C3CC3)o2)cc1 , field growth: 64.6

Data point: CCc1ccc(NC(=O)N[C@@H](Cc2cc(F)cc(F)c2)C(=O)N[C@@H]2C(=O)N3CCC[C@H]3C(=O)N3CCO[C@H](C)[C@H]3C(=O)N[C@@H](CO)C(=O)N3C[C@H](C)C[C@H]3C(=O)O[C@H]2C)c(F)c1 ; growth = -1.76

The recorded growth for CCOC(=O)C1=C(C)Nc2nnc(Nc3ccccc3)n2C1c1ccccc1 (stereo not drawn) is 82.4

The compound listed as Cc1ccc(-c2csc(N/N=C/c3nc4ccccc4n3C3CC3)n2)cc1 has a reported growth of 92.8
